Biological target: T1, human CDH6 on tumor cells (OVCAR3 cells, PA-1 cells) (human, UniProt P55285 54-790)
T1 sequence: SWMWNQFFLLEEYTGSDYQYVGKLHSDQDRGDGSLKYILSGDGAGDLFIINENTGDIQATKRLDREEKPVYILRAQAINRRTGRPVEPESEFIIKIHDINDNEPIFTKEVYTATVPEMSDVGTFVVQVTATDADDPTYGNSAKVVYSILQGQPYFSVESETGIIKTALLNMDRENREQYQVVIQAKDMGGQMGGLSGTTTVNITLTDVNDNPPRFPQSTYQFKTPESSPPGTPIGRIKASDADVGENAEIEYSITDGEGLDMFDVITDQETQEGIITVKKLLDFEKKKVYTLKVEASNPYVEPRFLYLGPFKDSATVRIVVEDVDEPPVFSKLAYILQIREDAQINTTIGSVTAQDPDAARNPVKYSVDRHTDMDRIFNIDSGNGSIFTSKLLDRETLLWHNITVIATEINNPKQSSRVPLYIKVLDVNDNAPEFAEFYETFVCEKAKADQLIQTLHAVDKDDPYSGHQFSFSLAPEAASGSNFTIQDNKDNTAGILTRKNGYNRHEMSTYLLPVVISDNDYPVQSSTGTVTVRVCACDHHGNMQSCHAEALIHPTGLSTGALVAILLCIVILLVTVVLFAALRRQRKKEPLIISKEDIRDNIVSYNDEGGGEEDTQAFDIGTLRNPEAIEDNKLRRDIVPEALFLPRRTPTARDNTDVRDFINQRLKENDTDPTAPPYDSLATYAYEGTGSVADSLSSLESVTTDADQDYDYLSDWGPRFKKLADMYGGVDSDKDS
Experiment: FACS, PA-1 cells

Binder	Max MFI / MFI
hCDH6-14-H3L2 (antibody, V domains shown, Humanized) VH: EIQLVQSGAEVKKPGASVKVSCKASGYTFTDNYINWVRQAPGQRLEWMGWIYPGTGNSYYNEKFKGRVTLTVDTSASTAYMELSSLRSEDTAVYYCASSYGDSFDYWGQGTTVTVSS VL: DIQMTQSPSSLSASVGDRVTITCRASQDIRNYLNWYQQKPGGAPKLLISYTSRLHSGVPSRFSGSGSGTDFTFTISSLQPEDIATYYCQQYSQLPWTFGGGTKVEIK	3490
hCDH6-14-H2L3 (antibody, V domains shown, Humanized) VH: EIQLVQSGAEVKKPGASVKVSCKASGYTFTDNYINWVRQAPGQRLEWMGWIYPGTGNSYYNEKFKGRVTITVDTSASTAYMELSSLRSEDTAVYYCASSYGDSFDYWGQGTTVTVSS VL: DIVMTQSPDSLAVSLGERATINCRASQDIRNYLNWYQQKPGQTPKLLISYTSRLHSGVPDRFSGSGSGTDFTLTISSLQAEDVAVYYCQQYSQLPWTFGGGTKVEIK	3780
hCDH6-14-H1L2 (antibody, V domains shown, Humanized) VH: EVQLVQSGAEVKKPGASVKVSCKASGYTFTDNYINWVRQAPGQRLEWMGWIYPGTGNSYYNEKFKGRVTITVDTSASTAYMELSSLRSEDTAVYYCASSYGDSFDYWGQGTTVTVSS VL: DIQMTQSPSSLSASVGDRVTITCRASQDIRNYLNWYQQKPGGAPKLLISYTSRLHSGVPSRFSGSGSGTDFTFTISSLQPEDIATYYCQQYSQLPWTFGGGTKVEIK	3600
